System: 454973-116-R2-J3-PDC spheroids, percent test/control viability;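 note: spheroids exposed to compounds for 7 days before readout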
assay.notes: Anticancer human tumor 454973-116-R2-J3-PDC patient-derived pancreatic carcinoma cell line growth inhibition [CLK]
setup.conditions: second compound 10 µM; first compound 0.0316 µM; hits give low values; spheroids with HUVEC and MSC
quantity.kind: viability, T/C (%)
Please give a number only; it is taken to be in %.

Below: 3 compounds and their reported viability, T/C.
CC(=O)O[C@H]1C(=O)[C@@]2(C)[C@H]([C@H](OC(=O)c3ccccc3)[C@]3(O)C[C@H](OC(=O)[C@H](O)[C@@H](NC(=O)c4ccccc4)c4ccccc4)C(C)=C1C3(C)C)[C@]1(OC(C)=O)CO[C@@H]1C[C@@H]2O + CN1CCN(c2cc(C(=O)Nc3cc4cc(-c5cnn(C)c5)ccc4cn3)ccn2)CC1
0.14
CC(Nc1ccc2c(c1)OCCn1cc(N3C(=O)OCC3C(F)F)nc1-2)C(N)=O (stereo not given) + CNC(=O)c1ccc(Nc2nc(OC3CCCC3)c3c(-c4ccc5nc(C)oc5c4)c[nH]c3n2)c(OC)c1
24.3
COc1cccc2c1C(=O)c1c(O)c3c(c(O)c1C2=O)CC(O)(C(=O)CO)CC3OC1CC(N)C(O)C(C)O1 (stereo not given) + CN1CCN(c2cc(C(=O)Nc3cc4cc(-c5cnn(C)c5)ccc4cn3)ccn2)CC1
0.12

Inquiry: Checklist item: viability, T/C tested on 454973-116-R2-J3-PDC spheroids, percent test/control viability, entry CC(CO)NC(=O)c1cc(-c2ccc(Cl)cc2)nn(-c2cnn(C)c2)c1=O (stereo not given) + CN1CCN(c2cc(C(=O)Nc3cc4cc(-c5cnn(C)c5)ccc4cn3)ccn2)CC1 , value?;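 note: spheroids exposed to compounds for 7 days before readout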
Reply text: 1.96

Inquiry: Can you handle C=CC(=O)N1CCN(c2nc(=O)n(-c3c(C)ccnc3C(C)C)c3nc(-c4c(O)cccc4F)c(F)cc23)C(C)C1 (stereo not given) + CN1CCN(c2cc(C(=O)Nc3cc4cc(-c5cnn(C)c5)ccc4cn3)ccn2)CC1 next?
Reply text: 1.96
